log10 IC50 by entry:
biological target: T1, soluble human FcRn (shFcRn) (human, UniProt P55899 24-297; P61769 21-119, biotinylated with Sulfo-NHS-LC-Biotin in the ELISA; amine-coupled to a CM5 chip in SPR); experiment: competition ELISA vs human IgG
T1 construct: also called biotinylated shFcRn
T1 sequence (P55899 24-297 limits assumed, chain 1 of 2): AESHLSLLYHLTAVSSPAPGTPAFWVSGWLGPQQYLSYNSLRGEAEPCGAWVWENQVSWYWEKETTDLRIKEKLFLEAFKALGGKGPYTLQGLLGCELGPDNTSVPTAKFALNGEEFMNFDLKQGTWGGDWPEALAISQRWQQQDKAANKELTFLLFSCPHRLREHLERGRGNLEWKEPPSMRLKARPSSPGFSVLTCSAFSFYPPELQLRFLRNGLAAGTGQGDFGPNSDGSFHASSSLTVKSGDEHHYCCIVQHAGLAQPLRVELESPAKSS
T1 sequence (P61769 21-119 limits assumed, chain 2 of 2): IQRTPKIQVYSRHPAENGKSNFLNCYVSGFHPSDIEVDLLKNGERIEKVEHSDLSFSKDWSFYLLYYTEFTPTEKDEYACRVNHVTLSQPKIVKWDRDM
Non-standard residues stand in square brackets, D forms with d. No end group written: not given here.
In our notation, the value equals log10 of IC50 in µM.

Find the measured log10 IC50 of QRFXTGHFXGLYPCNGP (Pen4; D-Phe9; disulfide; C-terminal amide) [Peptide No. 52] and report it.
0.45

More entries:
Find the measured log10 IC50 of QRFXTGHFXGLYPCNGP (Pen4; D-His9; disulfide; C-terminal amide) [Peptide No. 50] and report it.
0.56

Find the measured log10 IC50 of QRFCTGHFXGLYPCNGP (D-Ala9; disulfide; C-terminal amide) [Peptide No. 22] and report it.
1.68

Find the measured log10 IC50 of QRFVTGHFG[dP]YYPANGP-NH2 (N-terminus assumed; SMILES CC(C)[C@H](NC(=O)[C@H](Cc1ccccc1)NC(=O)[C@H](CCCNC(=N)N)NC(=O)[C@@H](N)CCC(N)=O)C(=O)N[C@H](C(=O)NCC(=O)N[C@@H](Cc1c[nH]cn1)C(=O)N[C@@H](Cc1ccccc1)C(=O)NCC(=O)N1CCC[C@@H]1C(=O)N[C@@H](Cc1ccc(O)cc1)C(=O)N[C@@H](Cc1ccc(O)cc1)C(=O)N1CCC[C@H]1C(=O)N[C@@H](C)C(=O)N[C@@H](CC(N)=O)C(=O)NCC(=O)N1CCC[C@H]1C(N)=O)[C@@H](C)O) [Peptide No. 176] and report it.
2.36

Find the measured log10 IC50 of QRFXTGHFXGLYPCNGP (Pen4; D-Arg9; disulfide; C-terminal amide) [Peptide No. 49] and report it.
0.61

Find the measured log10 IC50 of QRFVTGHFG[dP]LYPVNGP-NH2 (N-terminus assumed; SMILES CC(C)C[C@H](NC(=O)[C@H]1CCCN1C(=O)CNC(=O)[C@H](Cc1ccccc1)NC(=O)[C@H](Cc1c[nH]cn1)NC(=O)CNC(=O)[C@@H](NC(=O)[C@@H](NC(=O)[C@H](Cc1ccccc1)NC(=O)[C@H](CCCNC(=N)N)NC(=O)[C@@H](N)CCC(N)=O)C(C)C)[C@@H](C)O)C(=O)N[C@@H](Cc1ccc(O)cc1)C(=O)N1CCC[C@H]1C(=O)N[C@H](C(=O)N[C@@H](CC(N)=O)C(=O)NCC(=O)N1CCC[C@H]1C(N)=O)C(C)C) [Peptide No. 167] and report it.
1.97
